molecular target: A2a-adenosine receptor (Rattus norvegicus); construct: Rat cerebral cortical membranes and striatal membranes were prepared; from tissue; host or cells: rat striatal membranes; assay: Inhibition of [3H]CGS 21680 binding to A2a receptors; conditions: rat striatal membranes, 5 nM [3H]CGS 21680; read-out: Ki, μM(A2)
Sequence (P30543 whole entry): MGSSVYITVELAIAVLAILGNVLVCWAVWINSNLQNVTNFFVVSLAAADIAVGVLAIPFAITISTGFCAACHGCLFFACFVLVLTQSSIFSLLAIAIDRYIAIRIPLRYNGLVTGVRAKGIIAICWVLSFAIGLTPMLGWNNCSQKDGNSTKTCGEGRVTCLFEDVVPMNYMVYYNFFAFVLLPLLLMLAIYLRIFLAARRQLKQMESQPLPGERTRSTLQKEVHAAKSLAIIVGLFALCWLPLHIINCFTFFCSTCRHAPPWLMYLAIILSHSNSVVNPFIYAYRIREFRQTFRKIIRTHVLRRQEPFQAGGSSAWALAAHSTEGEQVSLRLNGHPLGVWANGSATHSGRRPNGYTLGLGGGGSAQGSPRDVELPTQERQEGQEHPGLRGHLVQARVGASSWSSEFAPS
Ki values for the molecules below.
quantity_name: Ki (µM)

molecule	quantity_name	numeric_readout
CCCn1c(=O)c2[nH]c(C3CCCC3)nc2n(CCC)c1=S [Compound 8, reference compound]	Ki	0.31
CCCn1c(=O)c2[nH]c(C34CC5CC(CC3C5)C4)nc2n(CCC)c1=O [Compound 12, 1,3-dipropyl-8-noradamantylxanthine, reference compound]	Ki	0.38
Cn1c(=O)c2[nH]c(C3CCCCCC3)nc2n(C)c1=O	Ki	1.05
Cn1c(=O)c2[nH]c(CC3CCCCC3)nc2n(C)c1=O	Ki	5.47
Cn1c(=O)c2c(nc(CC3CCCCC3)n2C)n(C)c1=O	Ki	5.46
CCn1c(C2CCCCC2)nc2c1c(=O)n(C)c(=O)n2C	Ki	3.23
C=CCn1c(=O)c2[nH]c(C3CCCCC3)nc2n(CC=C)c1=O	Ki	4.94
CCCn1c(=O)c2c(nc(C3CCCC3)n2C)n(CCC)c1=O	Ki	11.4

====

target: A1-adenosine receptor (Rattus norvegicus, UniProt P25099); construct: Rat cerebral cortical membranes and striatal membranes were prepared; from tissue; host or cells: rat cerebral cortex membranes; assay: Inhibition of [3H]N6-phenylisopropyladenosine binding to A1 receptors; conditions: rat cerebral cortex membranes, 1 nM [3H]PIA; read-out: Ki, μM(A1)
Could you mark each record criterion met if its Ki falls strictly under 0.07 µM, and criterion not met if it equals or exceeds it?

molecule	cat
Cn1c(=O)c2[nH]c(C3CCCCCC3)nc2n(C)c1=O	criterion met
CCCn1c(=O)c2c(nc(C3CCCCC3)n2C)n(CCC)c1=O	criterion not met
CCCn1c(=O)c2[nH]c(C3CCC(F)C3)nc2n(CCC)c1=O (centres unmarked)	criterion met
CCCn1c(=O)c2[nH]c(C34CC5CC(CC3C5)C4)nc2n(CCC)c1=O [Compound 12, 1,3-dipropyl-8-noradamantylxanthine, reference compound]	criterion met
CCCn1c(=O)c2[nH]c(C3CCC(I)C3)nc2n(CCC)c1=O (centres unmarked)	criterion met
CCCn1c(=O)c2[nH]c(C3CCCC3)nc2n(CCC)c1=S [Compound 8, reference compound]	criterion met
Cn1c(=O)c2[nH]c(CC3CCCCC3)nc2n(C)c1=O	criterion not met
CCn1c(C2CCCCC2)nc2c1c(=O)n(C)c(=O)n2C	criterion not met
Cn1c(=O)c2c(nc(CC3CCCCC3)n2C)n(C)c1=O	criterion not met
Cn1c(=O)c2c(nc(C3CCCCCC3)n2C)n(C)c1=O	criterion not met
CCn1cnc2c(NC3CCCC3)ncnc21 [Compound 27, 9-ethyl-6-cyclopenyladenine, reference compound]	criterion not met

====

compound	melting point
CCn1c(C2CCCCC2)nc2c1c(=O)n(C)c(=O)n2C (hydrate or solvate) [Compound 15]	> 170 °C
Cn1c(=O)c2[nH]c(C3CCCCCC3)nc2n(C)c1=O [Compound 23]	223 to 225 °C
Cn1c(=O)c2c(nc(C3CCCCC3)n2CC2CC2)n(C)c1=O (hydrate or solvate) [Compound 16]	> 120 °C
Cn1c(=O)c2[nH]c(CC3CCCCC3)nc2n(C)c1=O [Compound 21]	236 to 238 °C

====

biological target: CFTR polypeptide Iα [SEQ ID NO:1] (Homo sapiens)

compound	unit_symbol	Kd
CCCn1c(=O)c2[nH]c(C3CCCC3)nc2n(CCC)c1=O [Compound 5, 1,3-dipropyl-8-cyclopentylxanthine, reference compound]	nM	69

====

Molecular target: A1-adenosine receptor (Rattus norvegicus)
Construct: Rat cerebral cortical membranes and striatal membranes were prepared; from tissue; host or cells: rat cerebral cortex membranes
Sequence (P25099 1-326): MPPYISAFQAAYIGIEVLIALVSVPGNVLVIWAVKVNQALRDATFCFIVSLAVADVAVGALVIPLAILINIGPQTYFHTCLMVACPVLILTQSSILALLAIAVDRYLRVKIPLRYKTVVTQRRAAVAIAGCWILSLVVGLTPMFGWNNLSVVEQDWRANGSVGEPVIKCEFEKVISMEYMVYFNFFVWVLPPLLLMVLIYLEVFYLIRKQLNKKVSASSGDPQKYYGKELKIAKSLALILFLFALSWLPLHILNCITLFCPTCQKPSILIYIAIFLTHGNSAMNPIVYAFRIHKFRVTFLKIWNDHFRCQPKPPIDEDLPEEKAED
Test: Inhibition of [3H]N6-phenylisopropyladenosine binding to A1 receptors
Details: rat cerebral cortex membranes, 1 nM [3H]PIA; read-out: Ki, μM(A1)

molecule	unit_symbol	Ki
CCCn1c(=O)c2[nH]c(C3C=CCC3)nc2n(CCC)c1=O (stereo not shown)	µM	0.045
Cn1c(=O)c2[nH]c(C3CCCC3)nc2n(C)c1=O [Compound 4, 1,3-dimethyl-8-cyclopentylxanthine, reference compound]	µM	0.011
CCCn1c(=O)c2c(nc(C3CCCC3)n2C)n(CCC)c1=O	µM	2.3
Cn1c(=O)c2c(nc(C3CCCCC3)n2CC2CC2)n(C)c1=O	µM	8.23

====

tested on: bovine chromaffin granules; experiment: Chromaffin granule aggregation assay; assay type: biochemical; conditions: 1 mM CaCl2, pH 6.0; read-out: k1/2,app of chromaffin granule aggregation

substance	target_or_test_system	EC50 [µM]
CFTR polypeptide, amino acid positions 477 to 508, NH2-PSEGKIKHSGRISFCSQFSWIMPGTIKENEEF-COOH [Iα]	bovine chromaffin granules	6.3

====

target: A1-adenosine receptor (Rattus norvegicus, UniProt P25099); construct: Rat cerebral cortical membranes and striatal membranes were prepared; from tissue; host or cells: rat cerebral cortex membranes; test: Inhibition of [3H]N6-phenylisopropyladenosine binding to A1 receptors; settings: read-out: Ki for A1 receptors (unit inferred)
pKi: −log10 of the molar value.

compound_smiles	pKi
C=CCn1c(=O)c2[nH]c(C3CCCCC3)nc2n(CC=C)c1=O	~7.15

====

molecular target: A2a-adenosine receptor (Rattus norvegicus); construct: Rat cerebral cortical membranes and striatal membranes were prepared; from tissue; host or cells: rat striatal membranes; assay: Inhibition of [3H]CGS 21680 binding to A2a receptors; details: rat striatal membranes, 5 nM [3H]CGS 21680; read-out: Ki, μM(A2)
Could you mark each record Y if its Ki falls strictly under 5 µM, and N if it equals or exceeds it?

compound	target_or_test_system	cat
Cn1c(=O)c2c(nc(C3CCCCC3)n2CC2CC2)n(C)c1=O [Compound 16]	A2a-adenosine receptor (Rattus norvegicus)	Y
CCCn1c(=O)c2c(nc(C3CCCCC3)n2C)n(CCC)c1=O [Compound 19]	A2a-adenosine receptor (Rattus norvegicus)	N
Cn1c(=O)c2c(nc(C3CCCCCC3)n2C)n(C)c1=O [Compound 24]	A2a-adenosine receptor (Rattus norvegicus)	Y
CCCn1c(=O)c2[nH]c(C3C=CCC3)nc2n(CCC)c1=O (centres unmarked) [Compound 11]	A2a-adenosine receptor (Rattus norvegicus)	Y
CCn1cnc2c(NC3CCCC3)ncnc21 [Compound 27, 9-ethyl-6-cyclopenyladenine, reference compound]	A2a-adenosine receptor (Rattus norvegicus)	N
